Value source: paper PMC5540273

# %Inh per entry
# Tested on: MYO3B
# Experimental Context: concentration: 1 μM, replicates: in singlicate; n = 1;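 note: KINOMEscan kinase panel screen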
Attribute Measured: %Inh

Molecule: Nc1ncc(-c2ccc3nccc(-c4ccncc4)c3c2)cc1S(=O)(=O)N1CCOCC1
Result: 0%
//
Molecule: COc1ccc(-c2coc3ccc(-c4nnc(SCc5ccc(OC)c(C(F)(F)F)c5)o4)cc23)cc1
Result: 36%
//
Molecule: COCCOCCOc1cc2ncc3c4ccc(C#N)cc4[nH]c3c2cc1OC
Result: 0%
//
Molecule: COc1cc(Nc2nccc(-c3c(-c4cccc(NC(=O)c5c(F)cccc5F)c4)nn4ccccc34)n2)cc(OC)c1OC
Result: 100%
//
Molecule: CC(=O)N1CCN(c2ccc(Nc3nccc(-c4sc(C(C)C)nc4-c4cccc(NS(=O)(=O)c5cccc(Cl)c5)c4)n3)cn2)CC1
Result: 49%
//
Molecule: COc1cc(Nc2nccc(-c3c(-c4cccc(NC(=O)c5c(F)cccc5F)c4)nn4ncccc34)n2)cc(OC)c1OC
Result: 40%
//
Molecule: Cc1ccc(C(=O)N2CC[C@@H](O)C2)cc1-n1c(C)cc(OCc2ccc(F)cc2F)c(Br)c1=O
Result: 0%
//
Molecule: COc1cc(Nc2nccc(N3CCC(NC(=O)c4cc5ccccc5s4)C3)n2)cc(OC)c1OC (centres unmarked)
Result: 0%

* * *

# Tested on: AMPK-alpha1
# Construct: gene PRKAA1
# Experimental Context: concentration: 1 μM, replicates: in singlicate; n = 1
Attribute Measured: %Inh

Compound: CCS(=O)(=O)c1ccc(OC)c(Nc2nccc(-c3c(-c4cccc(NC(=O)c5c(F)cccc5F)c4)nn4ncccc34)n2)c1 [GSK326180]
Attribute Measured: %Inh
Result: 2%
--
Compound: COc1cccc(C2=C(Nc3ccc(Cl)c(C(=O)O)c3)C(=O)NC2=O)c1 [SB-390769]
Attribute Measured: %Inh
Result: 6%
--
Compound: Cc1occc1-c1ncc(OC[C@@H](N)Cc2c[nH]c3ccccc23)cc1-c1ccc2[nH]nc(C)c2c1.O=C(O)C(F)(F)F [GSK682037]
Attribute Measured: %Inh
Result: 12%
--
Compound: Cl.NC(=O)c1cccc(Nc2nccc(Nc3ccc(Oc4c(Cl)cccc4Cl)c(Cl)c3)n2)c1 [GW659009]
Attribute Measured: %Inh
Result: 0%
--
Compound: COC(=O)Nc1nc2ccc(Oc3ccc(NC(=O)Nc4cc(C(F)(F)F)ccc4F)cc3)cc2n1C.Cl [GW692089]
Attribute Measured: %Inh
Result: 0%
--
Compound: O=C(Nc1n[nH]c2cc(-c3ccoc3)ccc12)C1CC1 [SB-738481]
Attribute Measured: %Inh
Result: 0%
--
Compound: COC(=O)Nc1nc2cc(Oc3ccc(NC(=O)Nc4cc(C(F)(F)F)ccc4F)cn3)ccc2[nH]1.Cl.Cl [GW681170]
Attribute Measured: %Inh
Result: 19%
--
Compound: CN(C)S(=O)(=O)c1cc(-c2ccc3nccc(-c4cccc(S(N)(=O)=O)c4)c3c2)cnc1N [GSK1669921]
Attribute Measured: %Inh
Result: 3%

* * *

# Test system: AURKA
# Experimental Context: concentration: 1 μM, replicates: in singlicate; n = 1
# %Inh per entry

Smiles String: O=c1[nH]cc(-c2ccc(N3CCOCC3)cc2)c2sc(-c3cn[nH]c3)cc12
Assayed System: AURKA
%Inh: 28%
--
Smiles String: Cc1ccc(C(=O)Nc2ccc(Nc3ccnc4cc(-c5nccs5)ccc34)cc2O)cc1.Cl
Assayed System: AURKA
%Inh: 100%
--
Smiles String: CSc1cccc2c(-c3ccncn3)c(-c3ccc(F)cc3)nn12
Assayed System: AURKA
%Inh: 8%
--
Smiles String: O=C(Nc1cccc(-c2nn3ncccc3c2-c2ccnc(Nc3ccccc3)n2)c1)c1c(F)cccc1F
Assayed System: AURKA
%Inh: 65%
--
Smiles String: COc1cc2c(cc1OCCN1CCNCC1)ncc1c3ccc(C#N)cc3[nH]c21
Assayed System: AURKA
%Inh: 21%
--
Smiles String: Cl.NC(=O)c1cccc(Nc2nccc(Nc3ccc(Oc4c(Cl)cccc4Cl)c(Cl)c3)n2)c1
Assayed System: AURKA
%Inh: 0%
--
Smiles String: Cn1cc(-c2ccc3c(c2)CCN3C(=O)Cc2cccc(F)c2)c2c(N)ncnc21
Assayed System: AURKA
%Inh: 20%
--
Smiles String: Nc1ncc(-c2ccc3nccc(-c4ccncc4)c3c2)cc1S(=O)(=O)N1CCOCC1
Assayed System: AURKA
%Inh: 0%
--
Smiles String: Oc1cc(Nc2ccnc3cc(I)ccc23)ccc1F
Assayed System: AURKA
%Inh: 0%
